Tested on: Southern corn rootworm
testDescription: Corn rootworm control under corn growing conditions, aging in soil, root damage rating
Format: in vivo, Diabrotica undecimpunctata howardi
Parameters: scale not given here
protocolConditions: 10.0 lb/A; aged 11 days
Field: AVERAGE ROOT DAMAGE RATINGS, Test No. 1. Provide a value for each of the molecules that follow.
One number for each entry.

Previously resolved entries follow.
CCCCc1nc(SC)n(C(=O)N(C)C)n1 [R' = butyl] | 4.4
CSc1nc(C)nn1C(=O)N(C)C [R' = methyl] | 2.7
CCCc1nc(SC)n(C(=O)N(C)C)n1 [R' = propyl] | 4.4
CNC(=O)Oc1cccc2c1OC(C)(C)C2 [Carbofuran] | 4.8
CSc1nc(C(C)(C)C)nn1C(=O)N(C)C | 5.0
CCc1nc(SC)n(C(=O)N(C)C)n1 [R' = ethyl] | 4.3

For reference, reported AVERAGE ROOT DAMAGE RATINGS, Test No. 1 for CSc1nc(CC(C)C)nn1C(=O)N(C)C [R' = isobutyl] stands at 4.8
